Test description: Measurement of solubility in physiological saline
Type: physicochemical
Measurement setup: saline or isotonic, thermodynamic from solid, stirred 2 hours, filtered, HPLC
Experimental: The solubility of exemplary compounds of the present invention was measured. The measurement was carried out using an internal standard method, and a 4-point calibration curve (4000 μM, 1000 μM, 250 μM, and 31.3 μM, or 1000 μM, 250 μM, 62.5 μM, and 7.8 μM) was prepared. A sample solution (100% DMSO) was lyophilized, and each solution was added. Then, the mixture was stirred for 2 hours, and the sample dissolved in the solution was filtered. Thereafter, the filtrate was measured by HPLC (HPLC). […]
Readout name: solubility at 2 h (µM)
Your answer should be a plain number; it is taken to be in µM.

Request: For the molecule `O=C1O[C@H](COP(=O)(O)O)CN1c1ccc2cc(-c3ccccc3C(F)(F)F)[nH]c(=O)c2c1` , report solubility at 2 h.
Result: 3530

Request: For the molecule `O=C1O[C@@H](CO)CN1c1ccc2cc(-c3ccccc3C(F)(F)F)[nH]c(=O)c2c1` , report solubility at 2 h.
Result: 193

Request: For the molecule `O=C1O[C@H](CO)CN1c1ccc2cc(-c3ccccc3C(F)(F)F)[nH]c(=O)c2c1` , report solubility at 2 h.
Result: 179

---

Test description: Measurement of conversion rate in human plasma
Type: in vitro ADME
Measurement setup: 37° C., 50 μM
Give Residual rate (after 6 hrs., %) for every item shown.
Your answer should be a plain number; it is taken to be in %.

Request: For the compound `O=C1O[C@H](COP(=O)([O-])[O-])CN1c1ccc2cc(-c3ccccc3C(F)(F)F)[nH]c(=O)c2c1.[Na+].[Na+]` , report Residual rate (after 6 hrs., %).
Result: 29.4

Request: For the compound O=C1O[C@H](COP(=O)(OCc2ccccc2)OCc2ccccc2)CN1c1ccc2cc(-c3ccccc3C(F)(F)F)[nH]c(=O)c2c1 [Comparative compound 2, reference compound] , report Residual rate (after 6 hrs., %).
Result: 95.5

Request: For the compound O=C1O[C@@H](COP(=O)(OCc2ccccc2)OCc2ccccc2)CN1c1ccc2cc(-c3ccccc3C(F)(F)F)[nH]c(=O)c2c1 [Comparative compound 1, reference compound] , report Residual rate (after 6 hrs., %).
Result: 99.5

Request: For the compound `O=C1O[C@H](COP(=O)(O)O)CN1c1ccc2cc(-c3ccccc3C(F)(F)F)[nH]c(=O)c2c1` , report Residual rate (after 6 hrs., %).
Result: 35.4

Request: For the compound `O=C1O[C@@H](COP(=O)(O)O)CN1c1ccc2cc(-c3ccccc3C(F)(F)F)[nH]c(=O)c2c1` , report Residual rate (after 6 hrs., %).
Result: 33.4

---

Test description: Measurement of solubility in physiological saline
Type: physicochemical
Measurement setup: saline or isotonic, thermodynamic from solid, stirred 2 hours, filtered, HPLC
Description: The solubility of exemplary compounds of the present invention was measured. The measurement was carried out using an internal standard method, and a 4-point calibration curve (4000 μM, 1000 μM, 250 μM, and 31.3 μM, or 1000 μM, 250 μM, 62.5 μM, and 7.8 μM) was prepared. A sample solution (100% DMSO) was lyophilized, and each solution was added. Then, the mixture was stirred for 2 hours, and the sample dissolved in the solution was filtered. Thereafter, the filtrate was measured by HPLC (HPLC). […]
Give solubility at 2 h for every item shown.

Request: For the molecule O=C1O[C@@H](COP(=O)(OCc2ccccc2)OCc2ccccc2)CN1c1ccc2cc(-c3ccccc3C(F)(F)F)[nH]c(=O)c2c1 [Comparative compound 1, reference compound] , report solubility at 2 h.
Result: < 7.8 µM

Request: For the molecule `O=C1O[C@@H](COP(=O)(O)O)CN1c1ccc2cc(-c3ccccc3C(F)(F)F)[nH]c(=O)c2c1` , report solubility at 2 h.
Result: > 4000 µM

Request: For the molecule O=C1O[C@H](COP(=O)(OCc2ccccc2)OCc2ccccc2)CN1c1ccc2cc(-c3ccccc3C(F)(F)F)[nH]c(=O)c2c1 [Comparative compound 2, reference compound] , report solubility at 2 h.
Result: < 7.8 µM
